system: DENV-4 G1 India; assay: microbe, parasite or virus in culture; type: cell-based; details: Dengue virus, DENV4, Vero C1008; two of three values below threshold
READOUT KIND: EC50

Task: Field request: EC50 | item: COc1cc(N[C@H](C(=O)c2c[nH]c3ccc(OC(F)(F)F)cc23)c2ccc(Cl)cc2OC)cc(S(C)(=O)=O)c1
Output: < 0.09 nM

---

assay: Pharmacokinetics in mice, i.v. and oral; type: in vivo, CD-1 mice; conditions: male, CD-1, plasma, iv; mouse i.v. 2.5 mg/kg
READOUT KIND: AUC(0-inf) (ng·h/mL)
Please reply with the bare figure in ng·h/mL and do not write the unit itself.

Task: Which measured AUC(0-inf) value corresponds to COc1cc(N[C@H](C(=O)c2c[nH]c3ccc(OC(F)(F)F)cc23)c2ccc(Cl)cc2OC)cc(S(C)(=O)=O)c1 ?
Output: 8820

---

Assay: Pharmacokinetics in mice, i.v. and oral
Assay type: in vivo, CD-1 mice
Conditions: male, CD-1, mouse, plasma, po, 3 mg/kg, mouse oral 3 mg/kg
Protocol: The housing conditions and experimental procedures were approved by the ethics committee on animal experiments of Janssen Pharmaceutica NV (license number LA1100119). Janssen Pharmaceutica NV has full AAALAC accreditation. […] The blood samples were immediately centrifuged at 4 °C and the plasma was stored at −20 °C. Compound concentrations in the plasma samples were determined using the API 5500 LC–MS/MS system mass spectrometer (Applied Biosystems). […] (Certara).
READOUT KIND: bioavailability (%)
Just the number please, in %, no unit attached.

Task: If you can, please state the reported bioavailability value of COc1cc(N[C@H](C(=O)c2c[nH]c3ccc(OC(F)(F)F)cc23)c2ccc(Cl)cc2OC)cc(S(C)(=O)=O)c1 [JNJ-1802] .
Output: 59

---

assay: Pharmacokinetics in mice, i.v. and oral; assay type: in vivo, CD-1 mice; settings: male, CD-1, plasma, iv; mouse i.v. 2.5 mg/kg; read-out: AUC(0-24h)
READOUT KIND: AUC(0-t) (ng·h/mL)
Hi! Could you send only the number? It should be in ng·h/mL, unit omitted.

Task: What does the record list as AUC(0-t) for COc1cc(N[C@H](C(=O)c2c[nH]c3ccc(OC(F)(F)F)cc23)c2ccc(Cl)cc2OC)cc(S(C)(=O)=O)c1 [JNJ-1802] ?
Output: 8240

---

assay: in vivo; conditions: both, Indian-origin, rhesus monkey, po
READOUT KIND: bioavailability

Task: Recorded bioavailability of COc1cc(N[C@H](C(=O)c2c[nH]c3ccc(OC(F)(F)F)cc23)c2ccc(Cl)cc2OC)cc(S(C)(=O)=O)c1 [JNJ-1802] , please.
Output: 18 to 27%

---

assay: in vivo; parameters: species or system rhesus macaques; details: both sexes, Indian-strain, rhesus monkey, po, 6 mg/kg
READOUT KIND: Tmax (h)
Give just the numeric value; h need not be written.

Task: Would you mind telling me what Tmax value was observed for COc1cc(N[C@H](C(=O)c2c[nH]c3ccc(OC(F)(F)F)cc23)c2ccc(Cl)cc2OC)cc(S(C)(=O)=O)c1 [JNJ-1802] ?
Output: 8

---

tested on: DENV-2 RL strain; assay: Antiviral assay, viral RNA RT-qPCR, C6/36 cells; type: cell-based; details: Dengue virus, DENV2, C6/36, C3/36 cells, DENV-2RL, mean; read-out: EC50 Mean
READOUT KIND: pEC50
API: returns pEC50 as number; meaning -log10 of concentration in mol/L.

Task: Fill in the blank: the reported pEC50 of COc1cc(N[C@H](C(=O)c2c[nH]c3ccc(OC(F)(F)F)cc23)c2ccc(Cl)cc2OC)cc(S(C)(=O)=O)c1 is ____.
Output: 8.92

---

test system: DENV-2 Asian I Thailand; format: cell-based; settings: T108I in NS4B
READOUT KIND: pEC50
Lab note — pEC50 values are minus log10 of concentrations in M.

Task: Would you mind telling me what pEC50 value was observed for COc1cc(N[C@H](C(=O)c2c[nH]c3ccc(OC(F)(F)F)cc23)c2ccc(Cl)cc2OC)cc(S(C)(=O)=O)c1 ?
Output: 8.85

---

assay: Pharmacokinetics in mice, i.v. and oral; format: in vivo, CD-1 mice; settings: male, CD-1, in vivo; mouse oral 3 mg/kg
READOUT KIND: Cmax (ng/mL)
Answer with a number only, understood to be in ng/mL.

Task: Which Cmax is listed for COc1cc(N[C@H](C(=O)c2c[nH]c3ccc(OC(F)(F)F)cc23)c2ccc(Cl)cc2OC)cc(S(C)(=O)=O)c1 [JNJ-1802] ?
Output: 501

---

assay: ATPLite cell viability assay; type: cell-based, African green monkey; details: African green monkey, Vero cells, Vero with 50% HS
READOUT KIND: CC50

Task: Record request: CC50 value, item COc1cc(N[C@H](C(=O)c2c[nH]c3ccc(OC(F)(F)F)cc23)c2ccc(Cl)cc2OC)cc(S(C)(=O)=O)c1 [JNJ-1802]
Output: > 1500 nM

---

system: subgenomic DENV-2/16681 reporter replicon (WT or NS4B mutants); assay: microbe, parasite or virus in culture; assay type: cell-based; conditions: WT replicon pFK-sgDVs-R2A-SDM120005, Huh7 transient
READOUT KIND: pEC50
FYI, pEC50 means -log10 of a concentration in mol per litre.

Task: Endpoint output: pEC50 of COc1cc(N[C@H](C(=O)c2c[nH]c3ccc(OC(F)(F)F)cc23)c2ccc(Cl)cc2OC)cc(S(C)(=O)=O)c1 [JNJ-1802] . Value?
Output: 9.48

---

experiment: ATPLite cell viability assay; format: cell-based, African green monkey; conditions: African green monkey, Vero cells, TOX d4 preseeding, individual experiments
READOUT KIND: CC50 at 4 d
Report as: number unit

Task: If you can, please state the reported CC50 at 4 d value of COc1cc(N[C@H](C(=O)c2c[nH]c3ccc(OC(F)(F)F)cc23)c2ccc(Cl)cc2OC)cc(S(C)(=O)=O)c1 .
Output: 3.04 µM

---

tested on: C6/36 cells; experiment: Toxicity by high-content imaging; assay type: cell-based, Aedes albopictus; settings: C3/36 cells; read-out: CC50, individual values
READOUT KIND: CC50 (µM)
Write down the numeric answer in µM and omit the unit.

Task: // query CC50 value for entry COc1cc(N[C@H](C(=O)c2c[nH]c3ccc(OC(F)(F)F)cc23)c2ccc(Cl)cc2OC)cc(S(C)(=O)=O)c1
Output: 15.2

---

tested on: DENV-2 RL; assay: microbe, parasite or virus in culture; format: cell-based; settings: Dengue virus, DENV2, Vero, read-out: EC50 values Ave, B sample, passage 23
READOUT KIND: EC50 (nM)
Answer format: numeric, nM implied, no suffix.

Task: // fetch DENV-2 RL EC50 for COc1cc(N[C@H](C(=O)c2c[nH]c3ccc(OC(F)(F)F)cc23)c2ccc(Cl)cc2OC)cc(S(C)(=O)=O)c1
Output: 1.01

---

experiment: Pharmacokinetics in mice, i.v. and oral; format: in vivo, CD-1 mice; conditions: male, CD-1, plasma; mouse oral 30 mg/kg
READOUT KIND: Tmax (h)
// units = h; emit number, no label

Task: Suppose we examine the compound COc1cc(N[C@H](C(=O)c2c[nH]c3ccc(OC(F)(F)F)cc23)c2ccc(Cl)cc2OC)cc(S(C)(=O)=O)c1 ; what Tmax value has been reported?
Output: 6

---

assay: Toxicity by high-content imaging; assay type: cell-based, Aedes albopictus; conditions: Aedes albopictus, C6/36 cells, C3/36 cells, mean; read-out: CC50 Mean
READOUT KIND: CC50 (µM)
Your answer is read as µM, so omit the unit and give the number.

Task: Entry COc1cc(N[C@H](C(=O)c2c[nH]c3ccc(OC(F)(F)F)cc23)c2ccc(Cl)cc2OC)cc(S(C)(=O)=O)c1 : reported CC50 = ?
Output: 14.4

---

experiment: Pharmacokinetics in mice, i.v. and oral; assay type: in vivo, CD-1 mice; details: male, CD-1, mouse, plasma, po, 1 mg/kg, mouse oral 1 mg/kg
READOUT KIND: bioavailability (%)
Could you give me the number in %? Just the number is fine.

Task: Value lookup for bioavailability; key = COc1cc(N[C@H](C(=O)c2c[nH]c3ccc(OC(F)(F)F)cc23)c2ccc(Cl)cc2OC)cc(S(C)(=O)=O)c1 [JNJ-1802]
Output: 46

---

experiment: in vitro; conditions: African green monkey
READOUT KIND: CC50

Task: Query: CC50; subject: COc1cc(N[C@H](C(=O)c2c[nH]c3ccc(OC(F)(F)F)cc23)c2ccc(Cl)cc2OC)cc(S(C)(=O)=O)c1
Output: 16 µM

---

test: TOX-MT4LTRLUC; format: cell-based; details: human, MT4LTRLUC cells
READOUT KIND: CC90 (µM)
Your answer should be a plain number; it is taken to be in µM.

Task: CC90 lookup needed for COc1cc(N[C@H](C(=O)c2c[nH]c3ccc(OC(F)(F)F)cc23)c2ccc(Cl)cc2OC)cc(S(C)(=O)=O)c1 , thanks.
Output: 21.2
